Biological target: recombinant human-Dectin-1 mouse Fc fusion (human) (UniProt Q9BXN2)
Assay: Octet BLI, response at X
observationType: X = 290
Would you mind answering with just the numeric figure?

{"binder": "2M24A.1.20 (Fab, V domains shown) VH: QVQLVQSGAEVKKPGASVKVSCKSSGYTFTDYYIHWVRQAPGQGLEWMGWINPNSGDTNYAQKFQGRITMTRDTSISTAYLELSRLRSDDTAVFYCARNSGSYSAGYWGQGTLVTVSS VL: DIQMTQSPSSVSASVGDRVTITCRASQGISSWLAWYQQKPGKAPKLLIFGASSLQSGVPSRFSGSGSGTDFTLTVSSLQPEDFATYYCQQAYSFPFTFGPGTKVDIE", "X = 290": 0.0981}
{"binder": "2M24A.1.17 (Fab, V domains shown) VH: QVQLVQSGAEVKKPGASVKVSCKSSGYTFTDYYIHWVRQAPGQGLEWMGWINPNSGDTNYAQKFQGRITMTRDTSISTAYLELSRLRSDDTAVFYCARNSASYSFGYWGQGTLVTVSS VL: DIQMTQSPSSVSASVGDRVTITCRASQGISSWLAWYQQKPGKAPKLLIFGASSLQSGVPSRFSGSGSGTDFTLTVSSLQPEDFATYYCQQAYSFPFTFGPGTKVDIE", "X = 290": 0.131}

Turning to the following binder.
[Q] # lookup: X = 290 of 2M24A.1.21 (Fab, V domains shown) VH: QVQLVQSGAEVKKPGASVKVSCKSSGYTFTDYYIHWVRQAPGQGLEWMGWINPNSGDTNYAQKFQGRITMTRDTSISTAYLELSRLRSDDTAVFYCARNSGSYSFAYWGQGTLVTVSS VL: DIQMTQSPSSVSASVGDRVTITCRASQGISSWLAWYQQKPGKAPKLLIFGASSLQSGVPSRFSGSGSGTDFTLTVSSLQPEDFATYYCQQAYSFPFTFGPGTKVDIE
[A] 0.125
